System Under Test: CpomOrco (homomeric) (Cydia pomonella)
Construct: full-length CDS in pcDNA5/TO, expressed alone in HEK293 cells (HEK293A in methods, HEK293T in results)
Sequence (H9A5M2 1-473): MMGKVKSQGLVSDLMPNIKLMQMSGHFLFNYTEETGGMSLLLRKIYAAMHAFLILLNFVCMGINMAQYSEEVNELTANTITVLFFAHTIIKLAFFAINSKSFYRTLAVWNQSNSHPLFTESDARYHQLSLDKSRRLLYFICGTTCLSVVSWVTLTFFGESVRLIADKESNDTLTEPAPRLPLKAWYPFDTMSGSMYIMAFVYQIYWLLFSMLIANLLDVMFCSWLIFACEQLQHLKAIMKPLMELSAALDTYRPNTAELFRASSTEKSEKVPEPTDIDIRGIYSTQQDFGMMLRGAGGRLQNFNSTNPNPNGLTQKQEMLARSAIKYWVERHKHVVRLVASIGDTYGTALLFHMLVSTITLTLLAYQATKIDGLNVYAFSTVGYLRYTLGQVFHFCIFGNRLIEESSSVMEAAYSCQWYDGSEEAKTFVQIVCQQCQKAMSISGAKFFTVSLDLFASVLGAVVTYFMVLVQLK
Assay Info: Fluo-4 calcium imaging in HEK293 cells, Hill fit
Condition: read-out: [VUAA1]1/2
pEC50: −log10 of the molar value.
Readout Name: pEC50

Molecule: CCc1ccc(NC(=O)CSc2nnc(-c3cccnc3)n2CC)cc1 [VUAA1]
System Under Test: CpomOrco (homomeric) (Cydia pomonella)
Experimental Value: 3.55

Measured values drawn from paper PMC10853936 for this set.
